// reported pIC50 per item
- TARGET DESC: MET (human) (Homo sapiens)
- Sequence (P08581 25-1390): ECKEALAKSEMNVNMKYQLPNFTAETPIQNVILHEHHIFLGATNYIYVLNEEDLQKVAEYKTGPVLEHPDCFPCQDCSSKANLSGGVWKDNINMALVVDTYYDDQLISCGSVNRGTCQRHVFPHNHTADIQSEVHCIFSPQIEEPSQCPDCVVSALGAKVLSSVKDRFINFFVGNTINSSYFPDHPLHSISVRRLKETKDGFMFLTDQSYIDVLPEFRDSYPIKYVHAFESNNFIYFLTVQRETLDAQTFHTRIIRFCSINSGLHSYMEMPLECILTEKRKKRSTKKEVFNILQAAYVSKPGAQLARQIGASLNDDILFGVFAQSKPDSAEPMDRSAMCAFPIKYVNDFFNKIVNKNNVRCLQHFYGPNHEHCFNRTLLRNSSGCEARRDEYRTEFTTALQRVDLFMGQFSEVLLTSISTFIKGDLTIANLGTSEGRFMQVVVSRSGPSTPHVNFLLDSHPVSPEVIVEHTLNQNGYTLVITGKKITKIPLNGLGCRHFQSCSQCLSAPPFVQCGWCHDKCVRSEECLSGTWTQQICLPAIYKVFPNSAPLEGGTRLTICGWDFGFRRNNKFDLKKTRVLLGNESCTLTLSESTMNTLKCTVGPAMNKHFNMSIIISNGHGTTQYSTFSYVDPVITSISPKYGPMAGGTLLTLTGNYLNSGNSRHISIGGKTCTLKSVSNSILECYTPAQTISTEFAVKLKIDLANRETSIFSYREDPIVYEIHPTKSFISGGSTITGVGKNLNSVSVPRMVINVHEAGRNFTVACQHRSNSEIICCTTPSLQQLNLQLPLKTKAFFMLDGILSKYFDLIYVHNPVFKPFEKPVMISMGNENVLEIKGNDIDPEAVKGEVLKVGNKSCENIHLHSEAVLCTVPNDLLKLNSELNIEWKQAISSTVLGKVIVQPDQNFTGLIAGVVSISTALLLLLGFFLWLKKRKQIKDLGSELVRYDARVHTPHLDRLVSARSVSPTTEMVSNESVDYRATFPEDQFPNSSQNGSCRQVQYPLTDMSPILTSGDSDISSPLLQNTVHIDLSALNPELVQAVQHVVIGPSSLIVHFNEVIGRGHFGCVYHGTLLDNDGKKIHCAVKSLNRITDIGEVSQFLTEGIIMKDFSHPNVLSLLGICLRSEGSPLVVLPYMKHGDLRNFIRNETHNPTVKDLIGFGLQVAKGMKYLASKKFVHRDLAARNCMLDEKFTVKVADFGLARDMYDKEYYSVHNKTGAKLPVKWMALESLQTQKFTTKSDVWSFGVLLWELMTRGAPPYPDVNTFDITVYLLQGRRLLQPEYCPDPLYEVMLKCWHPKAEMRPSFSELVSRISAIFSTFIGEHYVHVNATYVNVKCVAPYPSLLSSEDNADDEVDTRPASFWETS
- ASSAY DETAILS: MET (human) AlphaScreen kinase assay, Km of ATP
- Assay type: biochemical
- EXPERIMENTAL CONDITIONS: AlphaScreen, Km of ATP; read-out: Met biochemical IC50
pIC50: −log10 of the molar value.

• C[C@@H](Oc1c(N)ncc2c(C3=CCN(CCN)CC3)coc12)c1c(Cl)ccc(F)c1Cl = > 6.30

Return reported pIC50. Input compound: `C[C@@H](Oc1c(N)ncc2c(C3=CCN(C(=O)NC(C)(C)C)CC3)coc12)c1c(Cl)ccc(F)c1Cl`
> 6.30

Annotate the compound `C[C@@H](Oc1c(N)ncc2c(C3=CCN(C(=O)[C@@H](N)Cc4cnc[nH]4)CC3)coc12)c1c(Cl)ccc(F)c1Cl` with its measured pIC50.
> 6.30

Input `Cc1ccc(-c2coc3c(O[C@H](C)c4c(Cl)ccc(F)c4Cl)c(N)ncc23)o1` , output reported pIC50.
5.30 to 6.30

Identify measured pIC50 corresponding to `C[C@@H](Oc1c(N)ncc2c(C3=CCN(C(=O)N4CCNCC4)CC3)coc12)c1c(Cl)ccc(F)c1Cl`
> 6.30

Answer with reported pIC50 of `C[C@@H](Oc1c(N)ncc2c(-c3cnn(C4CCNCC4)c3)c(C#CCN)oc12)c1c(Cl)ccc(F)c1Cl`
> 6.30

For the compound `C[C@@H](Oc1c(N)ncc2c(-c3cc(C(=O)O)cs3)coc12)c1c(Cl)ccc(F)c1Cl` , give its reported pIC50.
4.70 to 5.30

Let me know recorded pIC50 for `CCN1CCC(n2cc(-c3coc4c(O[C@H](C)c5c(Cl)ccc(F)c5Cl)c(N)ncc34)cn2)CC1` , thanks.
> 6.30

Given CC(Oc1c(N)ncc2c(-c3cnn(C4CCNCC4)c3)coc12)c1ccc(Cl)c(F)c1 (centres unmarked) , respond with its pIC50.
> 6.30
